tested on: T47D; assay: NCI tumour cell line growth inhibition, 48 h
Activity calls are given as the source filed them. Rule as the data show it: active = GI50 up to about 1.1 µM and inactive = higher.
Reported GI50 values follow for various molecules

molecule | GI50
NC(Cc1ccc(S(=O)(=O)O)cc1)C(=O)NC(Cc1ccc(S(=O)(=O)O)cc1)C(=O)O (stereo not drawn) | > 100 µM (inactive)
C=C(C)[C@H]1CC23C(=O)C(C(=O)C(C)C)=C(O)[C@](C)(C[C@H]2C1(C)C)C3=O [LALIBINONE B] | 30.9 µM (inactive)
CCCCCCCCCCCCC(O)C(=O)O (stereo not drawn) | > 100 µM (inactive)

###

Reported GI50 values follow for various compounds
system: SK-MEL-28; test: NCI tumour cell line growth inhibition, 48 h
The source made the active and inactive calls. Rule as the data show it: active = GI50 up to about 1.1 µM and inactive = higher.

compound | GI50
CC(C)(C)OC(=O)N1C/C=C\C(=O)C2(OCCO2)c2ccccc21 | 22.5 µM (inactive)
O=C1C=C(c2ccccc2)O/C1=C/C(=O)c1ccc(Cl)cc1 | 18 µM (inactive)
Cc1cc(C)c(C2=NOC(c3ccccc3)(c3cc(=O)n(-c4ccccc4)s3)O2)c(C)c1 (stereo unspecified) | 32 µM (inactive)
COC(=O)C1=C(C)N2CCSC2(C)C(C(=O)OC)C1c1cccc(Cl)c1 (stereo unspecified) | 19.1 µM (inactive)
O=C(Nn1c(-c2ccccc2)nc2ccccc2c1=O)c1ccc([N+](=O)[O-])cc1 | 72.3 µM (inactive)
COc1ccc2cc1Oc1ccc(cc1)C(Sc1ccccc1)CCOC(=O)CC2 (stereo unspecified) | > 100 µM (inactive)
